Molecular target: Androgen Receptor (Homo sapiens, UniProt P10275)
Construct: endogenous in cells; host or cells: VCaP cells
Sequence (P10275 1-920): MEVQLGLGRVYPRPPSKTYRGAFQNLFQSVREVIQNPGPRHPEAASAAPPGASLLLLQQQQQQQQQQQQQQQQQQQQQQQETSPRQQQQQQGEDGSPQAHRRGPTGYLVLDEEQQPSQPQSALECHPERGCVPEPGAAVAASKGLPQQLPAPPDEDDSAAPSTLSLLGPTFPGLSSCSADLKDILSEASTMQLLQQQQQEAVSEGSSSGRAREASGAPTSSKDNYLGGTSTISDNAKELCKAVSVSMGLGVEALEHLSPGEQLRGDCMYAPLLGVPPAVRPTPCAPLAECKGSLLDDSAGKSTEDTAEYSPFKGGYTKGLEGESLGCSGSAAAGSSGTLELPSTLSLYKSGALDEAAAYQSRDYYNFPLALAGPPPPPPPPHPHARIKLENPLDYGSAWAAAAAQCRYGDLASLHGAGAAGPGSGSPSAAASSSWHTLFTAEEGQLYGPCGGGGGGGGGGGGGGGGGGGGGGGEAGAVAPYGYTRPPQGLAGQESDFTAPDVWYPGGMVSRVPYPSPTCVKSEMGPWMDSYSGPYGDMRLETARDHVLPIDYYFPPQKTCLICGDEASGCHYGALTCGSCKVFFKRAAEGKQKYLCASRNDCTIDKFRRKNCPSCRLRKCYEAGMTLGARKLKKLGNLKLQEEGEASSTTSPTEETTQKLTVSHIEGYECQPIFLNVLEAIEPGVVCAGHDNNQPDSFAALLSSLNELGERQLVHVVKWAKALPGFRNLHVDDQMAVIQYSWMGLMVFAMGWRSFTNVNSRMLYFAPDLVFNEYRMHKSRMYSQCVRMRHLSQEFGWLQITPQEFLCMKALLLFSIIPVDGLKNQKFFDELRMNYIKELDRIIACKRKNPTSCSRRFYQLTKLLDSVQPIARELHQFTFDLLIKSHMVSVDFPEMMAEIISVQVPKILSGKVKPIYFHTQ
Assay: Androgen Receptor ELISA assay (PathScan AR ELISA) in VCaP cells: AR degradation, Dmax and DC50
Assay type: cell-based
Conditions: VCaP, read-out: VCaP Dmax (%)
Please provide measured Dmax for the entries that follow.

Worked examples follow.
{"compound": "Cc1ncsc1-c1ccc([C@H](C)NC(=O)[C@@H]2C[C@@H](O)CN2C(=O)[C@@H](NC(=O)CN2CCC(CN3CCN(c4ccc(C(=O)N[C@H]5C(C)(C)[C@H](Oc6ccc(C#N)c(Cl)c6)C5(C)C)cn4)CC3)CC2)C(C)(C)C)cc1", "endpointName": "Dmax", "observedResult": "> 71%"}
{"compound": "Cc1ncsc1-c1ccc([C@H](C)NC(=O)[C@@H]2C[C@@H](O)CN2C(=O)C(NC(=O)COCCCOCC[C@@H](O)CCOc2ccc(N3C(=S)N(c4ccc(C#N)c(C(F)(F)F)c4)C(=O)C3(C)C)cc2)C(C)(C)C)cc1 (stereo partly shown)", "endpointName": "Dmax", "observedResult": "26 to 50%"}
{"compound": "Cc1ncsc1-c1ccc(CNC(=O)[C@@H]2C[C@@H](O)CN2C(=O)[C@@H](NC(=O)COCCCOCCCCOc2ccc(N3C(=S)N(c4ccc(C#N)c(C(F)(F)F)c4)C(=O)C3(C)C)cc2)C(C)(C)C)cc1", "endpointName": "Dmax", "observedResult": "51 to 70%"}

Summary for this compound, Cc1ncsc1-c1ccc([C@H](C)NC(=O)C2C[C@@H](O)CN2C(=O)C(NC(=O)CN2C3CCC2CN(CCCCc2ccc(C(=O)N[C@H]4C(C)(C)[C@H](Oc5ccc(C#N)c(Cl)c5)C4(C)C)cc2)C3)C(C)(C)C)cc1 (stereo partly shown) : Dmax is > 71%

---

Target: Androgen Receptor (Homo sapiens)
Construct: endogenous in cells; host or cells: VCaP cells
Sequence (P10275 1-920): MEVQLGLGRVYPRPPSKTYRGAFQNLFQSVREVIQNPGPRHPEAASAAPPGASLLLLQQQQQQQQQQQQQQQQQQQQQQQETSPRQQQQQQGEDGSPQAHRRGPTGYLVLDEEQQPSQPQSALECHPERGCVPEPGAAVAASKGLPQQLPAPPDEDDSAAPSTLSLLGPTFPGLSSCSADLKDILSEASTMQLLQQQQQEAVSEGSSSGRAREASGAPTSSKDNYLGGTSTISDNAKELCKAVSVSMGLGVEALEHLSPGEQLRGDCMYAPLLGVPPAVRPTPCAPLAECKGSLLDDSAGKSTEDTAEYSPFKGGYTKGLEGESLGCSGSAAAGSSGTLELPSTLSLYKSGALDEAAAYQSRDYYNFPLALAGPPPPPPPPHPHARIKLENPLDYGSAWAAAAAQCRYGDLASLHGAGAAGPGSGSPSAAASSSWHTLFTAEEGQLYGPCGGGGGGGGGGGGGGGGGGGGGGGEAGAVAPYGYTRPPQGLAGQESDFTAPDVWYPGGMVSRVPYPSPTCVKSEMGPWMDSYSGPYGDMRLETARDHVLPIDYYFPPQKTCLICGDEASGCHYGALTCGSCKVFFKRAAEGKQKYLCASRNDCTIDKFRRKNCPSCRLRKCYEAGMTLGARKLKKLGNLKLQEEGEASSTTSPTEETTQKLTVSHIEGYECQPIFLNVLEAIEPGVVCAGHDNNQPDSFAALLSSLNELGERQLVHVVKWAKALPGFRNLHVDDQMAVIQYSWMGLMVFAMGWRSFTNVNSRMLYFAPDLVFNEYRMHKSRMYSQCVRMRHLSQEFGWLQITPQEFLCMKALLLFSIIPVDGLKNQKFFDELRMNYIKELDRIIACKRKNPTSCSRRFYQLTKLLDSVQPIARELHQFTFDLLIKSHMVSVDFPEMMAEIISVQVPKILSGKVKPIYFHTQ
Experiment: Androgen Receptor ELISA assay (PathScan AR ELISA) in VCaP cells: AR degradation, Dmax and DC50
Assay type: cell-based
Conditions: VCaP cells; Table 36; read-out: VCaP DC50
endpointName: DC50

{"compound": "Cc1ncsc1-c1ccc([C@H](C)NC(=O)[C@@H]2C[C@@H](O)CN2C(=O)[C@@H](NC(=O)CN2CCN(CCCc3ccc(C(=O)N[C@H]4C(C)(C)[C@H](Oc5ccc(C#N)c(Cl)c5)C4(C)C)cc3)[C@@H](CO)C2)C(C)(C)C)cc1 [Example 823]", "observedResult": "< 50 nM"}

Return reported DC50 values for all items listed beneath this line.
1. Cc1ncsc1-c1ccc([C@H](C)NC(=O)[C@@H]2C[C@@H](O)CN2C(=O)[C@@H](NC(=O)C(=O)N2CCN(CCOc3ccc(C(=O)N[C@H]4C(C)(C)[C@H](Oc5ccc(C#N)c(C(F)(F)F)c5)C4(C)C)cc3)CC2)C(C)(C)C)cc1 [Example 679]
2. Cc1ncsc1-c1ccc([C@H](C)NC(=O)C2C[C@@H](O)CN2C(=O)[C@@H](NC(=O)COCCN2C[C@@H](C)N(c3ccc(C(=O)N[C@H]4C(C)(C)[C@H](Oc5ccc(C#N)c(Cl)c5)C4(C)C)cn3)[C@@H](C)C2)C(C)(C)C)cc1 (some centres unmarked) [Example 813]

Result:
> 501 nM
< 50 nM

---

molecular target: Androgen Receptor (Homo sapiens); construct: endogenous in cells; host or cells: VCaP cells; test: Androgen Receptor ELISA assay (PathScan AR ELISA) in VCaP cells: AR degradation, Dmax and DC50; type: cell-based; conditions: VCaP, read-out: VCaP Dmax (%)
endpointName: Dmax

{"structureSmiles": "Cc1ncsc1-c1ccc(CNC(=O)[C@@H]2C[C@@H](O)CN2C(=O)[C@@H](NC(=O)COC[C@H]2C[C@H](Oc3ccc(-c4ccc(N5C(=S)N(c6ccc(C#N)c(C(F)(F)F)c6)C(=O)C5(C)C)cc4)cc3)C2)C(C)(C)C)cc1", "observedResult": "> 71%"}

Summary for this compound, Cc1ncsc1-c1ccc(CNC(=O)[C@@H]2C[C@@H](O)CN2C(=O)[C@@H](NC(=O)COc2ccc(Oc3cccc(-c4ccc(N5C(=S)N(c6ccc(C#N)c(C(F)(F)F)c6)C(=O)C5(C)C)cc4)c3)cc2)C(C)(C)C)cc1 : Dmax is > 71%

---

Target: Androgen Receptor (Homo sapiens, UniProt P10275)
Construct: endogenous in cells; host or cells: VCaP cells
Sequence (P10275 1-920): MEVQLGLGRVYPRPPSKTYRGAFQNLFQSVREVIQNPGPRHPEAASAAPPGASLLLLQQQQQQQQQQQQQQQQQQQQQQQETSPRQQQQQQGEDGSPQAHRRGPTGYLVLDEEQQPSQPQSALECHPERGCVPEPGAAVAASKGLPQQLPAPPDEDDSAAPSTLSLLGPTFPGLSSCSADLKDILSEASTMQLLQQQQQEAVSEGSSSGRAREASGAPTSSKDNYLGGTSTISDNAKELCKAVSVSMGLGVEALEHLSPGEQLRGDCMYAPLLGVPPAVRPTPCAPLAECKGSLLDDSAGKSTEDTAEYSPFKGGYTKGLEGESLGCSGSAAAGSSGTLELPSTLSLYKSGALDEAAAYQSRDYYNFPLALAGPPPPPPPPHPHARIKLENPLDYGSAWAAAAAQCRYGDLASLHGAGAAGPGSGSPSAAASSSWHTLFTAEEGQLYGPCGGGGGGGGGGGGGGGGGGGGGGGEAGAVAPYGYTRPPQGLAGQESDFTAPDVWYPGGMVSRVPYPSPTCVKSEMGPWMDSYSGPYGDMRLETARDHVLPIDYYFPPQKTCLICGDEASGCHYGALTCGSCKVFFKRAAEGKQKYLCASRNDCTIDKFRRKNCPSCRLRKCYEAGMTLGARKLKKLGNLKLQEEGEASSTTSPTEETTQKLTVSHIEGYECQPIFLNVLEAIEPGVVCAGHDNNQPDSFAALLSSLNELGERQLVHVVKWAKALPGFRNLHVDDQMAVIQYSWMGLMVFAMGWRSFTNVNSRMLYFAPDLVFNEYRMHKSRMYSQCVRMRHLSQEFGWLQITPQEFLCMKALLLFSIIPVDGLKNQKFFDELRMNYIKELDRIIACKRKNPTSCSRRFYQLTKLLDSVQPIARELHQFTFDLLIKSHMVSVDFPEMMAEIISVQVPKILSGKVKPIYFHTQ
Assay: Androgen Receptor ELISA assay (PathScan AR ELISA) in VCaP cells: AR degradation, Dmax and DC50
Format: cell-based
Conditions: VCaP, highest percentage of Androgen Receptor degradation observed, VCaP cells (Table 32); read-out: VCaP Dmax (%)
endpointName: Dmax

Worked examples follow.
{"structureSmiles": "Cc1ncsc1-c1ccc(CNC(=O)[C@@H]2C[C@@H](O)CN2C(=O)[C@@H](NC(=O)CNC(=O)c2ccc(Oc3ccc(C(=O)N[C@H]4C(C)(C)[C@H](Oc5ccc(C#N)c(Cl)c5)C4(C)C)cc3)cc2)C(C)(C)C)cc1", "observedResult": "> 71%"}
{"structureSmiles": "Cc1ncoc1-c1ccc(CNC(=O)[C@@H]2C[C@@H](O)CN2C(=O)[C@@H](NC(=O)COCCCCOc2ccc(C(=O)N[C@H]3C(C)(C)[C@H](Oc4ccc(C#N)c(Cl)c4)C3(C)C)cc2)C(C)(C)C)cc1", "observedResult": "> 71%"}
{"structureSmiles": "Cc1ncsc1-c1ccc([C@@H](C)NC(=O)[C@@H]2C[C@@H](O)CN2C(=O)[C@@H](NC(=O)COCCCCOc2ccc(C(=O)N[C@H]3C(C)(C)[C@H](Oc4ccc(C#N)c(Cl)c4)C3(C)C)cc2)C(C)(C)C)cc1", "observedResult": "26 to 50%"}

Summary for this molecule, Cc1ncsc1-c1ccc(CNC(=O)[C@@H]2C[C@@H](O)CN2C(=O)[C@@H](NC(=O)CO[C@@H](C)CCCCOc2ccc(C(=O)N[C@H]3C(C)(C)[C@H](Oc4ccc(C#N)c(Cl)c4)C3(C)C)cc2)C(C)(C)C)cc1 : Dmax is > 71%

Where do these numbers come from? They come from patent US11427548B2.
